protocol_summary: Fraction unbound in CD1 mouse plasma at 2 uM by equilibrium dialysis
Type: ADME, cell-free
property_label: fraction unbound at 2 µM

>>> df
                                   compound            property_label  endpoint_value
0  CC(=O)CC(c1ccccc1)c1c(O)c2ccccc2oc1=O (stereo not drawn)  fraction unbound at 2 µM           0.059
1  C=C1C[C@@H](C(=O)Nc2ncc(C)s2)N(C(=O)[C@H](CCCC)CN(O)C=O)C1  fraction unbound at 2 µM            0.01

Shifting focus to the compound that follows.
Which fraction unbound at 2 µM is reported for this compound? CCCC[C@H](CN(O)C=O)C(=O)N1CC=C[C@H]1C(=O)Nc1ccc(F)c[n+]1[O-]
0.467

###

Property: MIC; scope: individual molecules
System: Streptococcus pneumoniae
protocol_summary: Antimicrobial activity against penicillin-resistant Streptococcus pneumoniae after 24 hrs by broth microdilution method
Type: functional
Your reply should be a number followed by the unit it is expressed in.

Use these answered entries as a reference point.
>>> print(df.to_string())
                           smiles_structure  property_label  endpoint_value
0  C[C@H]1C[C@@H](C(=O)Nc2ccc(F)c[n+]2[O-])N(C(=O)[C@H](CC2CCCC2)CN(O)C=O)C1             MIC      0.03 µg/mL
1  O=CN(O)C[C@@H](CC1CCCC1)C(=O)N1C[C@@H](F)C[C@H]1C(=O)Nc1ccc(F)c[n+]1[O-]             MIC      0.03 µg/mL

Which MIC is reported for this molecule? Cc1ccc(NC(=O)[C@@H]2C[C@H]3CCCC[C@@H]3N2C(=O)[C@H](CC2CCCC2)CN(O)C=O)nc1
0.03 µg/mL

Which MIC is reported for this molecule? Cc1cnc(NC(=O)[C@@H]2C[C@H](F)CN2C(=O)[C@H](CC2CCCC2)CN(O)C=O)s1
0.03 µg/mL

Which MIC is reported for this molecule? Cc1cnc(NC(=O)[C@@H]2C[C@H]3CCCC[C@@H]3N2C(=O)[C@H](CC2CCCC2)CN(O)C=O)s1
0.03 µg/mL

Which MIC is reported for this molecule? CCCC[C@H](CN(O)C=O)C(=O)N1[C@H](C(=O)Nc2ncc(C)s2)C[C@H]2CCCC[C@@H]21
0.03 µg/mL

Which MIC is reported for this molecule? CCCC[C@H](CN(O)C=O)C(=O)N1C[C@@H](C)C[C@H]1C(=O)Nc1ccc(F)c[n+]1[O-]
0.03 µg/mL

Which MIC is reported for this molecule? Cc1cnc(NC(=O)[C@@H]2C[C@H](C)CN2C(=O)[C@H](CC2CCCC2)CN(O)C=O)s1
0.03 µg/mL

###

protocol_summary: Protein binding in CD1 mouse plasma at 2 uM by equilibrium dialysis
Type: ADME, cell-free
measurement_setup: read-out: PPB (converted)
Property: fraction unbound at 2 µM; scope: individual molecules
Answer field: number only, no words.

Use these answered entries as a reference point.
In [3]: df
Out[3]:
                                   molecule            property_label  endpoint_value
0  C=C1C[C@@H](C(=O)Nc2ncc(C)s2)N(C(=O)[C@H](CCCC)CN(O)C=O)C1  fraction unbound at 2 µM            0.01
1  CC(=O)CC(c1ccccc1)c1c(O)c2ccccc2oc1=O (stereo not drawn) [WARFARIN]  fraction unbound at 2 µM           0.059

Shifting focus to the molecule that follows.
Which fraction unbound at 2 µM is reported for this molecule? CCCC[C@H](CN(O)C=O)C(=O)N1CC=C[C@H]1C(=O)Nc1ccc(F)c[n+]1[O-]
0.467

###

Tested on: Haemophilus influenzae
protocol_summary: Antimicrobial activity against Haemophilus influenzae H128 after 24 hrs by broth microdilution method
Format: functional
measurement_setup: H128, 24 h
property_label: MIC (µg/mL)
Numeric answer only, unit µg/mL assumed.

Use these answered entries as a reference point.
In [3]: df
Out[3]:
                                   compound  property_label  endpoint_value
0  Cc1cnc(NC(=O)[C@@H]2C=CCN2C(=O)[C@H](CC2CCCC2)CN(O)C=O)s1             MIC               2
1  CCCC[C@H](CN(O)C=O)C(=O)N1CC=C[C@H]1C(=O)Nc1ccc(F)c[n+]1[O-]             MIC               2
2  CC1(C)S[C@@H]2[C@H](NC(=O)[C@H](N)c3ccc(O)cc3)C(=O)N2[C@H]1C(=O)O [AMOXICILLIN]             MIC              32
3  O=CN(O)C[C@@H](CC1CCCC1)C(=O)N1CC=C[C@H]1C(=O)Nc1ccc(F)cc1             MIC               2
4  O=CN(O)C[C@@H](CC1CCCC1)C(=O)N1CC=C[C@H]1C(=O)Nc1ccccc1             MIC               2
5  C=C1C[C@@H](C(=O)Nc2ncc(C)s2)N(C(=O)[C@H](CCCC)CN(O)C=O)C1             MIC               4
6  O=CN(O)C[C@@H](CC1CCCC1)C(=O)N1CC=C[C@H]1C(=O)Nc1ccc(F)c[n+]1[O-]             MIC               2

Shifting focus to the compound that follows.
Which MIC is reported for this compound? C=C1C[C@@H](C(=O)Nc2ccc(F)cn2)N(C(=O)[C@H](CCCC)CN(O)C=O)C1
16

###

System: Staphylococcus epidermidis
protocol_summary: Antimicrobial activity against Staphylococcus epidermidis after 24 hrs by broth microdilution method
Assay type: functional
Property: MIC; scope: individual compounds
Numeric answer only, unit µg/mL assumed.

Which MIC is reported for this compound? CC(=O)NC[C@H]1CN(c2ccc(N3CCOCC3)c(F)c2)C(=O)O1
0.5

Which MIC is reported for this compound? CCCC[C@H](CN(O)C=O)C(=O)N1CC=C[C@H]1C(=O)Nc1ccc(Cl)cc1
4

Which MIC is reported for this compound? C=C1C[C@@H](C(=O)Nc2ncc(C)s2)N(C(=O)[C@H](CCCC)CN(O)C=O)C1
0.0625

Which MIC is reported for this compound? C=C1C[C@@H](C(=O)Nc2ccc(F)c[n+]2[O-])N(C(=O)[C@H](CCCC)CN(O)C=O)C1
1

Which MIC is reported for this compound? O=CN(O)C[C@@H](CC1CCCC1)C(=O)N1CC=C[C@H]1C(=O)N1CCOCC1
64

Which MIC is reported for this compound? CCCC[C@H](CN(O)C=O)C(=O)N1CC=C[C@H]1C(=O)NC1CC1
4

###

protocol_summary: Drug recovery in CD1 mouse plasma at 2 uM by equilibrium dialysis
Type: ADME, cell-free
measurement_setup: read-out: Drug recovery
Property: recovery at 2 µM; scope: individual compounds
Numeric answer only, unit % assumed.

Use these answered entries as a reference point.
>>> df
                                   compound    property_label  endpoint_value
0  C=C1C[C@@H](C(=O)Nc2ncc(C)s2)N(C(=O)[C@H](CCCC)CN(O)C=O)C1  recovery at 2 µM            93.7
1  CCCC[C@H](CN(O)C=O)C(=O)N1CC=C[C@H]1C(=O)Nc1ccc(F)c[n+]1[O-]  recovery at 2 µM            91.2

Shifting focus to the compound that follows.
Which recovery at 2 µM is reported for this compound? CC(=O)CC(c1ccccc1)c1c(O)c2ccccc2oc1=O (stereo not drawn)
104

###

System: Streptococcus pneumoniae
protocol_summary: Antimicrobial activity against penicillin-resistant Streptococcus pneumoniae after 24 hrs by broth microdilution method
Type: functional
property_label: MIC (µg/mL)
Numeric answer only, unit µg/mL assumed.

Use these answered entries as a reference point.
>>> df
                           smiles_structure  property_label  endpoint_value
0  CCCC[C@H](CN(O)C=O)C(=O)N1C[C@@H](F)C[C@H]1C(=O)Nc1ncc(C)s1             MIC            0.06
1  O=CN(O)C[C@@H](CC1CCCC1)C(=O)N1[C@H](C(=O)Nc2ccc(F)cn2)C[C@H]2CCCC[C@@H]21             MIC            0.03
2  CCCC[C@H](CN(O)C=O)C(=O)N1[C@H](C(=O)Nc2ccc(C)cn2)C[C@H]2CCCC[C@@H]21             MIC            0.03

Which MIC is reported for this compound? CCCC[C@H](CN(O)C=O)C(=O)N1C[C@@H](F)C[C@H]1C(=O)Nc1ccc(F)c[n+]1[O-]
0.06
